Measured pIC50 by item
# test_description: Growth inhibition of human SW620 cells after 72 hrs by MTT assay
# Type: functional, cell-based
# measurement_parameters: SW-620, 72 h
pIC50: −log10 of the molar value.

CCCCCCCCc1cn(Cc2cc(=O)oc3cc(O)ccc23)nn1 : 4.29
O=c1cc(Cn2cc(CNS(=O)(=O)c3ccc(Cl)cc3)nn2)c2ccc(O)cc2o1 : < 4.00
O=c1cc(Cn2cc(C3CC3)nn2)c2ccc(O)cc2o1 : < 4.00
Cn1c(-c2cn(Cc3cc(=O)oc4cc(O)ccc34)nn2)nc2ccccc21 : < 4.00
O=c1cc(Cn2cc(CSC(=S)N3CCNCC3)nn2)c2ccc(O)cc2o1 : < 4.00
O=c1cc(Cn2cc(CCCCl)nn2)c2ccc(O)cc2o1 : 4.22

Memo: O=c1cc(Cn2cc(CCCCO)nn2)c2ccc(O)cc2o1 , reported pIC50: < 4.00
